Every entry's value here was drawn from paper PMC11506924.

# Test system: Hep G2
# Protocol text: MTT cytotoxicity assay, Hep G2
# Type: cell-based
# Setup conditions: Homo sapiens, HepG2, 24 h exposure, ± SD, n = 8
Parameter measured: IC50 (µM)
Provide the reading as a plain figure in µM.

INSERT INTO results (compound, parameter_measured, readout_number) VALUES
  ('CC(=O)OC1C(O)C(C)OC(OC2C(OC3C(OC4C(=O)c5c(O)cc(O)cc5OC4c4ccc(O)cc4)OC(C)C(O)C3O)OC(CO)C(O)C2O)C1O (stereo not shown)', 'IC50', 20.8),
  ('COC(=O)C1OC(OC2CCC3(C)C(CCC4(C)C3CC=C3C5CC(C)(C)CCC5(CO)C(O)C(O)C34C)C2(C)C)C(OC2OC(CO)C(O)C(O)C2O)C(OC2OC(CO)C(O)C(O)C2OC2OC(C)C(O)C(O)C2O)C1O (stereo not shown)', 'IC50', 25.6),
  ('CC1OC(OC2C(OC3C(O)C(C(=O)O)OC(OC4CCC5(C)C(CCC6(C)C5CC=C5C7CC(C)(C)CCC7(CO)C(=O)C(O)C56C)C4(C)C)C3OC3OC(CO)C(O)C(O)C3O)OC(CO)C(O)C2O)C(O)C(O)C1O (stereo not shown)', 'IC50', 8.77);

IN: Output IC50 of CC1OC(OC2C(OC3C(O)C(C(=O)O)OC(OC4CCC5(C)C(CCC6(C)C5CC=C5C7CC(C)(C)CCC7(CO)C(O)C(O)C56C)C4(C)C)C3OC3OC(CO)C(O)C(O)C3O)OC(CO)C(O)C2O)C(O)C(O)C1O (stereo not shown)
OUT: 14

====

# Tested on: MCF-7
# Protocol text: MTT cytotoxicity assay, MCF-7
# Type: cell-based
# Setup conditions: Homo sapiens, MCF7, 24 h exposure, ± SD, n = 8
# Excerpt: The human cervical cancer cell line Hela, the human lung adenocarcinoma cell line A549, the human breast cancer cell lines MCF-7 and MDA-MB-231, the human hepatoma cell lines BEL-7402 and Hep G2, the human embryonic lung fibroblast cell line MRC-5, and the human nasal epithelial cell line HNEpC were all sourced from the China Center for Type Culture Collection (CCTCC, Wuhan University, Hubei, China). […]
Parameter measured: pIC50
Worth noting: pIC50 values are minus log10 of concentrations stated in mol/L.

INSERT INTO results (compound, readout_number) VALUES
  ('COC(=O)C1OC(OC2CCC3(C)C(CCC4(C)C3CC=C3C5CC(C)(C)CCC5(CO)C(O)C(O)C34C)C2(C)C)C(OC2OC(CO)C(O)C(O)C2O)C(OC2OC(CO)C(O)C(O)C2OC2OC(C)C(O)C(O)C2O)C1O (centres unmarked)', 5.04);

Now look at this entry.
IN: Output pIC50 of CC1OC(OC2C(OC3C(O)C(C(=O)O)OC(OC4CCC5(C)C(CCC6(C)C5CC=C5C7CC(C)(C)CCC7(CO)C(O)C(O)C56C)C4(C)C)C3OC3OC(CO)C(O)C(O)C3O)OC(CO)C(O)C2O)C(O)C(O)C1O (centres unmarked)
OUT: 4.72

====

# Test system: MCF-7
# Protocol text: MTT cytotoxicity assay, MCF-7
# Format: cell-based
# Setup conditions: Homo sapiens, MCF7, 24 h exposure, ± SD, n = 8
Parameter measured: pIC50
Worth noting: pIC50 values are minus log10 of concentrations stated in mol/L.

INSERT INTO results (compound, target_entity, readout_number) VALUES
  ('COc1cccc2c1C(=O)c1c(O)c3c(c(O)c1C2=O)C[C@@](O)(C(=O)CO)C[C@@H]3O[C@H]1C[C@H](N)[C@H](O)[C@H](C)O1 [doxorubicin, reference compound]', 'MCF-7', 5.42);

Now look at this entry.
IN: Output pIC50 of CC1OC(OC2C(OC3C(O)C(C(=O)O)OC(OC4CCC5(C)C(CCC6(C)C5CC=C5C7CC(C)(C)CCC7(CO)C(=O)C(O)C56C)C4(C)C)C3OC3OC(CO)C(O)C(O)C3O)OC(CO)C(O)C2O)C(O)C(O)C1O (stereo not drawn)
OUT: 5.78
